Test system: P388 leukemia ip, CD2F1 mice, survival T/C
test.details: NCI In Vivo Anticancer Drug Screen. Data for tumor model P388 Leukemia (intraperitoneal) in CD2F1 (CDF1) mice
settings: endpoint: median survival time; dose: 100.0 mg/kg/injection; schedule: Q01DX005 (ip); vehicle: saline with Tween-80; higher = longer survival
Procedure: The antitumor activity of compounds was measured in mice bearing transplantable tumors. Survival or tumor size were measured and the results are expressed as the measurement made in the treated group (T) divided by the measurement made in the vehicle treated control group (C). The tumor model used in this assay is P388 Leukemia (intraperitoneal) in CD2F1 (CDF1) mice
Toxic doses and inconclusive results are not listed.
Listing of entries alongside the reported T/C.
test.readout: T/C

1. COc1ccc(C2(c3ccc(OC)cc3)c3ccccc3C(=O)c3ccc(OC)cc32)cc1 :: 100 % of control
2. CCOc1cc2c(cc1C/C=C/c1ccccc1)OCO2 :: 110 % of control
3. COCCNC(=S)SCCN(C(C)C)C(C)C :: 106 % of control
4. CC1CC(O)C(=O)C2(C)C1CC1OC(=O)CC3C(C)C(=O)C(O)C2C13 (stereo unspecified) :: 104 % of control
5. COc1ccc(C(=O)Nc2ccccc2-c2ccccc2)cc1OC :: 97 % of control
6. C/C(=N\NC(=S)N1CCC(C)CC1)c1cccc2cccnc12 :: 104 % of control

Hey, just so you know, these numbers are from PubChem BioAssay AID330.
